# TESTED_ON: Kallikrein-7 (Homo sapiens) (UniProt P49862)
# Sequence (P49862 whole entry, looked up): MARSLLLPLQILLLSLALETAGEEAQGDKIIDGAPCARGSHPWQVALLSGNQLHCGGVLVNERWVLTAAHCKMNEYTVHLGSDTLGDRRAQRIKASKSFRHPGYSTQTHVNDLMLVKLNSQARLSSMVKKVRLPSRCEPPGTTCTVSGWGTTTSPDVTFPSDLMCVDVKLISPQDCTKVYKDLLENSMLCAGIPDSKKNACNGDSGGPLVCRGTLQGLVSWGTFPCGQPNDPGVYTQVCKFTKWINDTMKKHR
# EXPERIMENT: activation of human kallikrein-7 proenzyme – biochemical, fluorescence intensity, primary screen (AID 652039)
# EXPERIMENTAL_CONDITIONS: purified proKLK7, EDANS-DABCYL substrate fluorescence; at 7 µM
The whole screen tested about 370,000 compounds, of which about 3,300 (0.89%) were called active.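 Rule for the calls: active = activation above the mean of all tested compounds plus 3 SD, computed per campaign excluding outliers beyond control limits (cut at about 13% in these data); inactive = the rest.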 What follows is part of a selection rich in actives, with near analogues and random picks from the rest.
Permitted responses: active, inactive

Look over these answered cases.
{"columns": ["COMPOUND", "CLASS_ASSIGNMENT"],
 "data": [
  ["O=S(=O)(c1ccccc1)N1CCC2CCNC2C1 (centres undefined)", "inactive"],
  ["C[C@H]1CN([C@@H](C)CO)C(=O)CCCn2nncc2CO[C@H]1CN(C)C(=O)Oc1ccccc1", "inactive"],
  ["O=C(OCCN1CCOCC1)C1(c2ccccc2)CCCC1", "inactive"],
  ["c1ccc(CCN2CCC3(CC2)OCCO3)cc1", "inactive"],
  ["Clc1ccc([C@@H]2CC3CCC2N3)cn1 (some centres undefined)", "inactive"],
  ["COc1cc(OC)cc(C(=O)NCCN2CCC3(CC2)C(=O)NCN3c2ccccc2)c1", "inactive"],
  ["COc1ccc(-c2nn(CCC#N)cc2C(=O)O)cc1", "inactive"],
  ["Brc1ccc2c(c1)CNCc1cnnn1-2", "inactive"]
]}

Task: What did this assay record as the result for COc1cccc(-c2nc3ccc(N4CCN(C)CC4)cc3[nH]2)c1 ?
Output: active

Task: In this assay, the call recorded for COc1ccc2c(c1)[C@@]13CCCCC1[C@@H](C2)NCC3 (some centres undefined) was what?
Output: inactive

Task: Which outcome was assigned to CCC(C)NC1(c2ccccc2)CCCCC1 (centres undefined) in this test?
Output: inactive

Task: Could you please tell me the result logged for COc1cc(Cn2c(N)c(C(=O)NCc3ccco3)c3nc4ccccc4nc32)cc(OC)c1OC in this assay?
Output: inactive

Task: What outcome does the record of this test show for COP(=O)(Sc1ccccc1)C(Cc1ccccc1)NC(=O)OCc1ccccc1 (centres undefined) ?
Output: inactive

Task: Give the logged outcome of this assay for the following compound: Cc1ccccc1CCC[C@@H](CC1CCCCC1)CN(C)C(=O)Oc1ccccc1
Output: inactive

Source listed as PubChem BioAssay AID652039.
